Hey, just so you know, these numbers are from ChEMBL document CHEMBL1140768.

# System: PANC-1
# run_description: Cytotoxicity against human PANC1 cells in nutrient deprived medium after 24 hrs
# Format: functional
assay_readout: CD100

mol	assay_readout	experimental_result
O=C1C[C@@H](c2ccc(O)cc2)Oc2cc(O)ccc21	CD100	>100 µM
COc1ccc2c(c1)O[C@H]1c3ccc(O)c(O)c3OC[C@@H]21	CD100	25 µM
CC(=O)O[C@H]1C(=O)[C@@]2(C)[C@H]([C@H](OC(=O)c3ccccc3)[C@]3(O)C[C@H](OC(=O)[C@H](O)[C@@H](NC(=O)c4ccccc4)c4ccccc4)C(C)=C1C3(C)C)[C@]1(OC(C)=O)CO[C@@H]1C[C@@H]2O	CD100	>100 µM
